Provide the reported melting point of each item.

Query O=C(COc1ccc2oc(=O)ccc2c1)NNC(=S)Nc1ccccc1 [Compound 14a] yields melting point of 173 to 175 °C

Query O=C(COc1ccc2ccc(=O)oc2c1)NNC(=S)Nc1ccc(I)cc1 [Compound 18b] yields melting point of 164 to 166 °C

Query O=C(COc1ccc2oc(=O)ccc2c1)NNC(=S)Nc1ccc(F)cc1 [Compound 17a] yields melting point of 181 to 183 °C

Query CSc1ccc(NC(=S)NNC(=O)COc2ccc3ccc(=O)oc3c2)cc1 [Compound 22b] yields melting point of 163 to 164 °C

Query O=C(COc1ccc2oc(=O)ccc2c1)NNC(=S)Nc1ccc(Cl)cc1 [Compound 16a] yields melting point of 163 to 165 °C

Query Cc1ccc(NC(=S)NNC(=O)COc2ccc3oc(=O)ccc3c2)cc1 [Compound 15a] yields melting point of 167 to 169 °C

Query O=C(COc1ccc2oc(=O)ccc2c1)NNC(=S)Nc1cccc(I)c1 [Compound 19a] yields melting point of 144 to 146 °C

Query O=C(COc1ccc2ccc(=O)oc2c1)NNC(=S)Nc1ccccc1 [Compound 14b] yields melting point of 155 to 156 °C
